- procedure details: Cytotoxicity against human MDA-MB-435 cells assessed as growth inhibition after 48 hrs by MTT assay
- Type: functional
- stated conditions: MDA-MB-435, 48 h
reported property: GI50

Some compounds with recorded GI50:
>  <smiles structure>
NCCCC[C@@H]1NC(c2ccc(Br)cc2)=Nc2nc3ccccn3c2C1=O

>  <experimental result>
> 10 µM

$$$$
>  <smiles structure>
C[C@H]1NC(c2ccc(Br)cc2)=Nc2nc3ccccn3c2C1=O

>  <experimental result>
> 100 µM

$$$$

Let us examine a further case.
Query Cc1ccccc1C1=Nc2nc3ccccn3c2C(=O)[C@H](C)N1 yields GI50 of > 10 µM

src = ChEMBL document CHEMBL3877299
